pKi for Aurora kinase A (Homo sapiens), merged from several publications.
pKi: −log10 of the molar value.
METRIC: pKi

[[record]]
structure_smiles_string = "COc1ccc(C2=NNC(=O)C2=NNc2ccc(Oc3ccccc3)cc2)cc1OC"
metric = "pKi"
reported = "> 7.00"

[[record]]
structure_smiles_string = "CNCCCN(C)C(=O)c1ccc(-c2cnc3c(-c4ccccn4)c(N)nn3c2)cc1"
metric = "pKi"
reported = "> 6.30"

[[record]]
structure_smiles_string = "C[C@@H](O)Cn1cc(Nc2ncc(Cl)c(N[C@H]3[C@@H](C(N)=O)[C@@H]4C=C[C@H]3C4)n2)cn1"
metric = "pKi"
reported = "> 7.00"

[[record]]
structure_smiles_string = "CCC(=O)Nc1ccc(Sc2nc(Nc3cc(C)n[nH]3)cc(N3CCC(C)(O)CC3)n2)cc1"
metric = "pKi"
reported = "≥ 8.00"

[[record]]
structure_smiles_string = "Cc1cc(Nc2nc(Nc3ccc(CC(=O)O)c(C)c3)nc3ccccc23)n[nH]1"
metric = "pKi"
reported = "> 7.00"

[[record]]
structure_smiles_string = "CN1CCN(CCn2cc(Nc3ncc(Cl)c(N[C@H]4[C@@H](C(N)=O)C[C@H]5C[C@@H]4C5(C)C)n3)cn2)CC1"
metric = "pKi"
reported = "6.00 to 7.00"

[[record]]
structure_smiles_string = "COc1cccc(Oc2nc(Nc3cc(C)[nH]n3)c3ccccc3n2)c1"
metric = "pKi"
reported = "> 7.00"

[[record]]
structure_smiles_string = "COCC(=O)N1CCCN(c2cc(-n3cnc(Nc4ccccc4)n3)ccn2)CC1"
metric = "pKi"
reported = "6.00 to 7.00"

